- Test system: P. falciparum HB3 in RBCs, SYBR Green DNA fluorescence
- assayDetails: growth inhibition of P. falciparum HB3, dose response, HB3 strain, red blood cells, SYBR Green, cherry-picked (AID 652041);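 also: parasites exposed to compound for 72 hours before the DNA read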
Quick reference: AC35 of the listed items.
readoutType: AC35

compound	assaySystem	recordedValue
C[n+]1c2cc(N)ccc2cc2ccc(N)cc21	P. falciparum HB3 in RBCs, SYBR Green DNA fluorescence	0.0524 µM
Oc1ccc(/C=N/Nc2ccc(C(F)(F)F)cn2)c(O)c1	P. falciparum HB3 in RBCs, SYBR Green DNA fluorescence	6.46 µM
Cc1ccccc1C(=O)NNC(=S)NC(=O)c1ccc(Cl)cc1Cl	P. falciparum HB3 in RBCs, SYBR Green DNA fluorescence	34.3 µM
Cc1ccccc1Oc1nc(-c2ccccn2)nc2ccccc12	P. falciparum HB3 in RBCs, SYBR Green DNA fluorescence	4.4 µM
COC(=O)C1=NN(C(=O)c2cccc(Br)c2)C(O)(c2ccc(Cl)cc2)C1 (configuration not stated)	P. falciparum HB3 in RBCs, SYBR Green DNA fluorescence	31 µM
CCc1ccc(OCc2n[nH]c(=S)n2Cc2ccccc2)cc1	P. falciparum HB3 in RBCs, SYBR Green DNA fluorescence	34.4 µM
Cc1ccoc1C(=O)Nc1cccc(Oc2ccccc2)c1	P. falciparum HB3 in RBCs, SYBR Green DNA fluorescence	6.15 µM
C=CCc1ccc(O)c(-c2ccc(O)c(CC=C)c2)c1	P. falciparum HB3 in RBCs, SYBR Green DNA fluorescence	14.7 µM
CCCCc1ccc(-n2c(Cc3cccs3)n[nH]c2=S)cc1	P. falciparum HB3 in RBCs, SYBR Green DNA fluorescence	29.2 µM
CCCCNc1c(-c2cccc(Sc3ccc(OC)cc3)c2)nc2ccccn12	P. falciparum HB3 in RBCs, SYBR Green DNA fluorescence	8.77 µM
CCCS(=O)(=O)c1c(S(=O)(=O)CCC)c2c(C)cccn2c1C(=O)N/N=C/c1cc(O)cc(O)c1	P. falciparum HB3 in RBCs, SYBR Green DNA fluorescence	10.5 µM
Nc1cc2c3ccccc3ccc2c2ccccc12	P. falciparum HB3 in RBCs, SYBR Green DNA fluorescence	0.249 µM
COc1ccc(N(C)S(=O)(=O)c2ccc(Cl)c(C(=O)NNC(=O)c3ccccc3O)c2)cc1	P. falciparum HB3 in RBCs, SYBR Green DNA fluorescence	35.8 µM
O=C(N/N=C/c1cc(Cl)cc([N+](=O)[O-])c1O)c1ccccc1NS(=O)(=O)c1cccs1	P. falciparum HB3 in RBCs, SYBR Green DNA fluorescence	41.5 µM
Clc1nc(-c2ccccn2)nc2scc(-c3ccccc3)c12	P. falciparum HB3 in RBCs, SYBR Green DNA fluorescence	2.39 µM
Cc1cccc(Nc2nc(-c3ccc(O)cc3O)cs2)n1	P. falciparum HB3 in RBCs, SYBR Green DNA fluorescence	18.6 µM
CCc1cc(SC#N)cc(C)c1NC(=O)CCl	P. falciparum HB3 in RBCs, SYBR Green DNA fluorescence	7.66 µM
Cc1cccc(N2CCN(C(=O)C3COc4ccccc4O3)CC2)c1C (configuration not stated)	P. falciparum HB3 in RBCs, SYBR Green DNA fluorescence	38.9 µM
O=C1c2ccccc2-n2c1nc1ccccc1c2=O	P. falciparum HB3 in RBCs, SYBR Green DNA fluorescence	0.0617 µM
O/N=C(\c1ccc(Cl)cc1)c1cc2ccccc2o1	P. falciparum HB3 in RBCs, SYBR Green DNA fluorescence	16.4 µM
COc1ccc(N=N/C(=C\O)C(=O)c2cccs2)cc1	P. falciparum HB3 in RBCs, SYBR Green DNA fluorescence	7.99 µM
Cc1ccc(C)c(/C=C/C(=O)c2ccccc(=O)c2O)c1	P. falciparum HB3 in RBCs, SYBR Green DNA fluorescence	8.27 µM
S=C(Nc1ccc(Oc2ccccc2)cc1)NC1CCCCCC1	P. falciparum HB3 in RBCs, SYBR Green DNA fluorescence	4.03 µM
O=C(Oc1c(Cl)cc(Cl)c2cccnc12)c1cccs1	P. falciparum HB3 in RBCs, SYBR Green DNA fluorescence	19 µM
CC12CC3(C)CC(C)(C1)CC(NC(=O)N1CCCC1)(C2)C3	P. falciparum HB3 in RBCs, SYBR Green DNA fluorescence	14.9 µM
CC(C)=CCc1c(O)ccc(C(=O)Cc2ccccc2)c1O	P. falciparum HB3 in RBCs, SYBR Green DNA fluorescence	11 µM
Cc1ccsc1/C=C/c1ccc2cccc(O)c2n1	P. falciparum HB3 in RBCs, SYBR Green DNA fluorescence	11.9 µM
Cc1cc(-c2ccccc2)n(-c2cc(N/N=C/c3ccccc3O)ncn2)n1	P. falciparum HB3 in RBCs, SYBR Green DNA fluorescence	3.85 µM
Cc1ccc(Sc2cc(C)nc(-c3ccccn3)n2)cc1	P. falciparum HB3 in RBCs, SYBR Green DNA fluorescence	6.03 µM
CC(C)C(=O)NC(c1cccc([N+](=O)[O-])c1)c1ccc2cccnc2c1O (configuration not stated)	P. falciparum HB3 in RBCs, SYBR Green DNA fluorescence	0.826 µM
CC1(C)C2CCC1(C)C(OC(=O)c1ccc(O)cc1)C2 (configuration not stated)	P. falciparum HB3 in RBCs, SYBR Green DNA fluorescence	11.6 µM
O/N=C(\c1ccc(Cl)cc1Cl)c1ncc(C(F)(F)F)cc1Cl	P. falciparum HB3 in RBCs, SYBR Green DNA fluorescence	11.6 µM
Nc1nc(-c2ccc(Oc3ccccc3)cc2)cs1	P. falciparum HB3 in RBCs, SYBR Green DNA fluorescence	30.3 µM
C=C1C(=O)C23CCC4C(C)(C(=O)OC)CCCC4(C)C2CCC1(O)C3 (configuration not stated)	P. falciparum HB3 in RBCs, SYBR Green DNA fluorescence	1.72 µM
CC[n+]1c(/C=C/C=C/c2ccc(N(C)C)cc2)sc2ccccc21	P. falciparum HB3 in RBCs, SYBR Green DNA fluorescence	2.68 µM
C(=C1c2ccccc2-c2ccccc21)c1ccncc1	P. falciparum HB3 in RBCs, SYBR Green DNA fluorescence	18.2 µM
c1ccc(-c2ccc(SCc3cccnc3)nn2)nc1	P. falciparum HB3 in RBCs, SYBR Green DNA fluorescence	35.5 µM
O=C(c1ccccc1)c1coc2c1C(=O)c1ccccc1C2=O	P. falciparum HB3 in RBCs, SYBR Green DNA fluorescence	1.49 µM
CCCCCCCCCCOC(=O)Cn1c(COc2ccccc2OC)[n+](C)c2ccccc21	P. falciparum HB3 in RBCs, SYBR Green DNA fluorescence	0.346 µM
Cc1ccc(NC2(c3nnnn3-c3c(C)cccc3C)CCCCC2)cc1	P. falciparum HB3 in RBCs, SYBR Green DNA fluorescence	18 µM
Cc1cc(Nc2ccccc2)nn1C(=O)c1ccccc1	P. falciparum HB3 in RBCs, SYBR Green DNA fluorescence	43.1 µM
O=P(Nc1cccnc1)(Oc1ccccc1Cl)Oc1ccccc1Cl	P. falciparum HB3 in RBCs, SYBR Green DNA fluorescence	37.1 µM
Cc1cc(/C=C2\SC(=S)N(C)C2=O)c(C)n1-c1ccc(O)cc1	P. falciparum HB3 in RBCs, SYBR Green DNA fluorescence	9.39 µM
O=C(CSc1ccc(-c2ccccn2)nn1)c1ccccc1	P. falciparum HB3 in RBCs, SYBR Green DNA fluorescence	28 µM
O=C(COc1ccccc1F)Nc1nc(-c2ccccn2)cs1	P. falciparum HB3 in RBCs, SYBR Green DNA fluorescence	12 µM
O=C(NCC1CC1(Cl)Cl)Nc1ccc(Cl)c(Cl)c1 (configuration not stated)	P. falciparum HB3 in RBCs, SYBR Green DNA fluorescence	5.48 µM
COc1ccccc1-c1sc2cc3c(cc2c1C#Cc1cncn1C)OCO3	P. falciparum HB3 in RBCs, SYBR Green DNA fluorescence	2.96 µM

The reported numbers originate from PubChem BioAssay AID652041.
